# protocol description: PK of compound of Formula (Ia) after single subcutaneous dose of solution formulations in beagle dogs
# Type: in vivo
# test conditions: male, beagle, dog, plasma, sc, 6 mg/kg, 72.0 h; individual dogs; SC 6 mg/kg; solution V, 300 mg/mL
measure: concentration at 72 h

Quick one: concentration at 72 h for `CC(C)(C#Cc1ccc(-c2ccc(Cl)c3c(NS(C)(=O)=O)nn(CC(F)(F)F)c23)c([C@H](Cc2cc(F)cc(F)c2)NC(=O)Cn2nc(C(F)(F)F)c3c2C(F)(F)[C@@H]2C[C@H]32)n1)S(C)(=O)=O` ?
32.8 nM

---

# protocol description: PK of compound of Formula (Ia) after single subcutaneous dose of solution formulations in beagle dogs
# Format: in vivo
# test conditions: male, beagle, dog, plasma, sc, 12 mg/kg, 72.0 h; mean, n = 3 dogs; SC 12 mg/kg; solution T, 400 mg/mL
measure: concentration at 72 h
Write the figure, then the unit, nothing else.

Quick one: concentration at 72 h for `CC(C)(C#Cc1ccc(-c2ccc(Cl)c3c(NS(C)(=O)=O)nn(CC(F)(F)F)c23)c([C@H](Cc2cc(F)cc(F)c2)NC(=O)Cn2nc(C(F)(F)F)c3c2C(F)(F)[C@@H]2C[C@H]32)n1)S(C)(=O)=O` ?
223 nM
